B1: C2CD2L (parent)
chain: LTLKVLRSSSCGDTELLGQATLPV

Variants of: B1
assayName: protein stability index of a GFP-peptide fusion (GPS, HEK-293T) (PSI 1-6); higher = more stable;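 note: lentivirally expressed fusions sorted by FACS into six bins by GFP to DsRed ratio, PSI derived from sequencing read proportions per bin multiplied by bin number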
testConditions: c terminus: a fixed tail appended
reportedMetric: protein stability index

1) A20I; 2.35
2) L3F; 2.31
3) V24E; 1.54
4) L17H; 1.24
5) S10K; 3.12
6) T21S; 2.06
7) A20W; 3.17
8) G12Q; 2.12
9) S8F; 4.03
10) D13G; 4.31
11) S10T; 3.38
12) S10N; 1.67
13) L16R; 1.8
14) L16D; 2.69
15) T21E; 1.58
16) L1H; 2.24
17) E15I; 3.24
18) S8M; 3.9
19) T14Y; 3.11
20) E15N; 3.3
21) V5R; 2.05
22) V24N; 1.92
